- Assayed target: Receptor tyrosine-protein kinase erbB-2 (Homo sapiens)
- Assay protocol: reducers of endogenous Her2 protein level, primary screen, SKBR3 breast tumor cells, AlphaScreen, ATP viability (AID 461);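 also: lower value means less Her2 protein in the cells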
- Experimental parameters: 18-24 h, at 10 µM, active compounds read low
Quantity name: Her2 level (%)
Answers are plain numbers, in %.

Working through the 3 compounds below one at a time, give Her2 level for each.
1. O=C(O)c1c(Cl)c(Cl)c(Cl)c(Cl)c1C(=O)N1CCOCC1
2. Cc1cc(=O)n2[nH]c(COc3ccccc3)nc2n1
3. CCOc1ccc(C(=O)N(CN2CCCC2=O)c2ccc(C)cc2)cc1

1. 90
2. 105
3. 114

Can you give me Her2 level for all of these, one by one?
1. CSCC[C@@H](Nc1nc(-c2ccccc2)nc2c1oc1ccccc12)C(=O)O
2. O=C(Nc1cccnc1)Nc1ccc2c(c1)OCO2
3. Cn1cc(CN2CCc3ccccc3C2)c2ccccc21
4. O=C(c1ccco1)N1CCN(/C(=N/S(=O)(=O)c2cccs2)c2ccccc2Cl)CC1
5. Cc1c(/C(O)=C2/C(=O)C(=O)N(CCN3CCOCC3)C2c2cccnc2)cnn1-c1ccccc1 (stereo unspecified)

1: 75; 2: 74; 3: 82; 4: 81; 5: 108

Required: Her2 level, one value per compound below.
1. CCOCC(=O)Nc1sc2c(c1C(=O)OCC)CCCC2
2. O=C1CC(N2CCN(c3ccc(Cl)c(Cl)c3)CC2)C(=O)N1 (stereo unspecified)
3. COc1ccc(OCCOC(=O)c2cccs2)cc1

1: 89.5; 2: 103; 3: 92

====

- Assay protocol: growth suppression of yeast trafficking mutant, preliminary HTS, modulators of trafficking downstream of Golgi apparatus project, 1536-format plate, OD 615 nm (AID 637)
- Experimental parameters: yeast transport mutant growth, absorbance 615 nm, 18 h; active compounds read high
Assign inhibition to each entry below.
Answers are plain numbers, in %.

Examples with answers:
C/C=C/c1ccc(OCCn2cncn2)c(OC)c1	0.66
CC(NS(=O)(=O)c1ccccc1)C(c1cccs1)N1CCN(C)CC1 (stereo unspecified)	-6.83
C=CCSC1=C(C#N)C(c2ccccc2Cl)CC(=O)N1 (stereo unspecified)	-2.26
O=C(COC(=O)CCc1c[nH]c2ccccc12)NC1CCS(=O)(=O)C1 (stereo unspecified)	-4.76

Dear colleague, could you send me inhibition for each of the items below? Thanks.
1. CCOC(=O)Cn1c(CN2CCN(c3cccc(Cl)c3)CC2)nc2c1c(=O)[nH]c(=O)n2C
2. CC(C)OC(=O)CN1C(=O)C(C)(C)Oc2ccc(C(=O)NC3CC3)cc21
3. CCOc1cccc(OCCOCCN2CCCC2)c1
4. CCn1ncc(C2=NOC(C(=O)NCc3ccccc3)C2)c1C (stereo unspecified)
5. Cc1cc(C)cc(NS(=O)(=O)c2ccc3[nH]c(=O)[nH]c3c2)c1
6. N#Cc1ccc(COC(=O)Cn2nnc(-c3ccccc3)n2)cc1
7. Cc1nn(-c2ccccc2)c(Cl)c1C(=O)NCC(=O)O

1. 1.17
2. 1.94
3. -3.17
4. -1.9
5. -4.5
6. -0.95
7. 0.17

====

- Assay protocol: growth inhibitors of H69AR lung tumor, primary screen, human, duplicate replicates (AID 580);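 also: 100% = mean luminescence of untreated wells and 0% = no signal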
- Experimental parameters: H69AR lung tumor cells viability, ATP luminescence, 72 h; at 10 µM; active compounds read low
Task for the reader: assign each of the following compounds its reported viability.
Answers are plain numbers, in %.

CC(C)Cn1c(-c2ccc(F)cc2)n[nH]c1=S	88.8
COC(=O)c1cc2oc(C)cc2n1CC(=O)Nc1ccc(C)c(C)c1	83.8
N#CCCN(C(=O)Nc1ccc(Cl)cc1)c1ccccc1	105
COc1ccc(N=c2scc(-c3ccc(S(=O)(=O)N4CCOCC4)cc3)n2CCCO)cc1	72.8
COc1ccc(NC(=O)CCc2nc(-c3ccccc3F)no2)cc1	93.6
Cc1ccc(NC(=O)CN2CC(C)SC2=NC2CCCCC2)cc1 (centres undefined)	83.9
CCn1c(SCC(=O)N2CCCc3ccccc32)nnc1-c1cccs1	87.5
Cc1cc(NC(=O)c2cc3ccccc3o2)cc(C)c1OCC(=O)N1CCOCC1	90.3

Would you be so kind as to report viability for each listed record?
1. COc1ccc(CCNC(=O)C2CCN(C(=O)N(C)C)CC2)cc1OC
2. Cc1cc2c(cc1C)C(=O)NC(C)(C)C2
3. CC(C)(C)NC(=O)C(c1ccco1)N(C(=O)Cn1nnc(-c2ccc(F)cc2)n1)c1ccccc1F (centres undefined)
4. O=C(O)c1[nH]c2ccc(Cl)cc2c1CC(=O)N1CCN(C(=O)c2ccco2)CC1
5. Cc1ccc(NS(=O)(=O)c2cn(C)cn2)cc1
6. CCOc1cc(C)c(Cl)cc1S(=O)(=O)N(C)C

92.8
95.2
99.3
95.8
92.7
95.4
